Cited source for all entries: patent US20110195911A1

- System: MCF-7 breast cancer cells
- test.description: MTT cell toxicity assay in MCF-7 breast cancer cells
- Assay type: cell-based
- experimental.parameters: MCF-7 cells, MTT, final 0.5% FBS, two days with compound
Where a SMILES comes first, the peptide text is derived from it. The star is where a group is joined. Palmitoyl = CCCCCCCCCCCCCCCC(=O)*
observed.property: GI50 (nM)
Numbers only, in nM.

Worked examples follow.
CCCCCCCCCCCCCCCC(=O)N[C@@H](Cc1c[nH]cn1)C(=O)N[C@@H](CCCNC(=N)N)C(=O)N[C@@H](CCCCN)C(=O)N[C@@H](CCCNC(=N)N)C(=O)N[C@@H](CC(N)=O)C(=O)N[C@@H](CC(N)=O)C(=O)N[C@@H](CO)C(=O)N[C@@H](CCCNC(=N)N)C(=O)N[C@@H](CC(C)C)C(=O)NCC(=O)N[C@@H](CC(N)=O)C(=O)NCC(N)=O [Peptide 1, Pal-HRKRNNSRLGNG-NH2] (Palmitoyl-HRKRNNSRLGNG-NH2) : 1800
CCCCCCCCCCCCCCCC(=O)N[C@@H](CCCNC(=N)N)C(=O)N[C@@H](CC(N)=O)C(=O)N[C@@H](CC(N)=O)C(=O)N[C@@H](CO)C(=O)N[C@@H](CCCNC(=N)N)C(=O)N[C@@H](CC(C)C)C(=O)NCC(=O)N[C@@H](CC(N)=O)C(=O)NCC(=O)N[C@H](C(=O)N[C@@H](CC(C)C)C(=O)N[C@@H](Cc1ccc(O)cc1)C(=O)N[C@@H](C)C(=O)N[C@@H](CO)C(N)=O)C(C)C [Peptide 34, Pal-RNNSRLGNGVLYAS-NH2] (Palmitoyl-RNNSRLGNGVLYAS-NH2) : 40

Let us move to another entry and its GI50.
### Prompt What value of measured GI50 is listed for CCCCCCCCCCCCCCCC(=O)N[C@@H](CCCNC(=N)N)C(=O)N[C@@H](CC(C)C)C(=O)NCC(=O)N[C@@H](CC(N)=O)C(=O)NCC(=O)N[C@H](C(=O)N[C@@H](CC(C)C)C(=O)N[C@@H](Cc1ccc(O)cc1)C(N)=O)C(C)C [Peptide 20, Pal-RLGNGVLY-NH2] (Palmitoyl-RLGNGVLY-NH2) ?
### Response 200
